Test system: barnyardgrass (Echinochloa crus-galli, ECHCG)
assayProcedure: Post-emerge test, greenhouse herbicide activity screening
Assay type: in vivo
conditionLabel: post-emerge, 63 g ai/ha, 14 days after application, rating scale 0-100
Below is a list of entries, each paired with its recorded phytotoxicity rating ECHCG value.
Provide a numeric answer; units are not to be included.

In the examples that follow, each entry is paired with its recorded phytotoxicity rating ECHCG.
COc1c(Cl)cc(F)c(-n2c(=O)cc(C(F)(F)F)n(C)c2=O)c1NC(=O)OCc1ccccc1C(F)(F)F = 10
COc1c(Cl)cc(F)c(-n2c(=O)cc(C(F)(F)F)n(C)c2=O)c1NC(=O)CC#N = 30
CNC(=O)N(C(=O)NC)c1c(OC)c(Cl)cc(F)c1-n1c(=O)cc(C(F)(F)F)n(C)c1=O = 0

API: the following record is the query input.
Query: // returns reported phytotoxicity rating ECHCG for input `COc1ccc(C(=O)Nc2c(OC)c(Cl)cc(F)c2-n2c(=O)cc(C(F)(F)F)n(C)c2=O)cc1`
Reply: 10

###

System: velvetleaf (Abutilon theophrasti, ABUTH)
assayProcedure: Pre-emerge test, greenhouse herbicide activity screening
Type: in vivo
conditionLabel: pre-emerge, 63 g ai/ha, 14 days after application, scale 0-100
The compounds listed here are annotated with their phytotoxicity rating ABUTH.
Note: the reply should be a number with no unit written.

Query: Given the entry `COc1c(Cl)cc(F)c(-n2c(=O)cc(C(F)(F)F)n(C)c2=O)c1NC(=O)CCc1ccccc1C` , report its measured phytotoxicity rating ABUTH.
Reply: 100

Query: For the compound shown here, `Cc1c(Cl)cc(F)c(-n2c(=O)cc(C(F)(F)F)n(C)c2=O)c1NC(=O)C=Cc1ccccc1` , give the reported phytotoxicity rating ABUTH.
Reply: 100

Query: What value of measured phytotoxicity rating ABUTH is listed for `Cn1c(C(F)(F)F)cc(=O)n(-c2ccc(Cl)cc2NC(=O)c2ccc3ccccc3c2)c1=O` ?
Reply: 85

Query: Reported phytotoxicity rating ABUTH, compound `Cn1c(C(F)(F)F)cc(=O)n(-c2c(F)cc(Cl)cc2NC(=O)c2ccc3ccccc3c2)c1=O` : ____
Reply: 90

###

Test system: lambsquarters (Chenopodium album, CHEAL)
assayProcedure: Post-emerge test, greenhouse herbicide activity screening
Type: in vivo
conditionLabel: post-emerge, 250 g ai/ha, 14 days after application, rating scale 0-100
valueKind: phytotoxicity rating CHEAL
Number only, no unit.

Example cases with answers are listed next.
COc1c(Cl)cc(F)c(-n2c(=O)cc(C(F)(F)F)n(C)c2=O)c1NC(=O)c1ccc2c(c1)OCO2 = 95
COc1c(Cl)cc(F)c(-n2c(=O)cc(C(F)(F)F)n(C)c2=O)c1N(C(=O)c1ccc(F)c(F)c1)C(=O)c1ccc(F)c(F)c1 = 60
COc1c(Cl)cc(F)c(-n2c(=O)cc(C(F)(F)F)n(C)c2=O)c1NC(=O)OCc1ccc(C(F)(F)F)cc1 = 90
COc1c(Cl)cc(F)c(-n2c(=O)cc(C(F)(F)F)n(C)c2=O)c1NC(=O)c1ccc(F)cc1 = 95
COc1c(Cl)cc(F)c(-n2c(=O)cc(C(F)(F)F)n(C)c2=O)c1NC(=O)OCc1ccc(F)c(F)c1 = 100

Query: phytotoxicity rating CHEAL; subject: `COc1c(Cl)cc(F)c(-n2c(=O)cc(C(F)(F)F)n(C)c2=O)c1NC(=O)CC#N`
Reply: 100

Query: May I ask what phytotoxicity rating CHEAL has been recorded for `COc1c(Cl)cc(F)c(-n2c(=O)cc(C(F)(F)F)n(C)c2=O)c1NC(=O)C=Cc1ccccc1` ?
Reply: 100

Query: Which phytotoxicity rating CHEAL is reported for this compound? `COc1c(Cl)cc(F)c(-n2c(=O)cc(C(F)(F)F)n(C)c2=O)c1NC(=O)CCc1ccccc1`
Reply: 100

###

Tested on: johnsongrass (Sorghum halepense, SORHA)
assayProcedure: Post-emerge test, greenhouse herbicide activity screening
Assay type: in vivo
conditionLabel: 250 g ai/ha; post-emerge; 14 days after application; rating scale 0-100
// not met strictly below 60 in Post-emerge Herbicidal Activity SORHA (phytotoxicity rating); met otherwise

Record excerpt, results attached:
COc1c(Cl)cc(F)c(-n2c(=O)cc(C(F)(F)F)n(C)c2=O)c1NN=C(C(F)(F)F)C(F)(F)F [15-21] = met
CCOC(=O)C(Cl)Cc1cc(Cl)cc(F)c1-n1c(=O)cc(C(F)(F)F)n(C)c1=O (stereo not drawn) [14-60] = not met
CCOC(=O)C(Cl)Cc1c(OC)c(Cl)cc(F)c1-c1nn(C)c(C(F)(F)F)c1Cl (stereo not drawn) [14-56] = met
COc1c(Cl)cc(F)c(-n2c(=O)cc(C(F)(F)F)n(C)c2=O)c1SC(C)C [17-2] = not met
COc1c(Cl)cc(F)c(-n2c(=O)cc(C(F)(F)F)n(C)c2=O)c1NNC(=O)C1CC1 [Compound 15-2] = met
Cn1c(C(F)(F)F)cc(=O)n(-c2ccc(Cl)cc2/C=C/c2ccc3ccccc3c2)c1=O [14-59] = not met

Query: Exam item: decide whether the reported Post-emerge Herbicidal Activity SORHA (phytotoxicity rating) for COc1c(Cl)cc(F)c(-n2c(=O)cc(C(F)(F)F)n(C)c2=O)c1NN=CC1CC1 [Compound 15-11] is at least 60.
Reply: met

Query: Does the reported Post-emerge Herbicidal Activity SORHA (phytotoxicity rating) for Cn1c(C(F)(F)F)cc(=O)n(-c2c(O)cc(Cl)cc2Cl)c1=O [16-1] fall at or above the 60 mark?
Reply: not met

Query: Hi, just wondering whether COc1c(Cl)cc(F)c(-n2c(=O)cc(C(F)(F)F)n(C)c2=O)c1SC [Compound 17-1] shows Post-emerge Herbicidal Activity SORHA (phytotoxicity rating) of 60 or higher.
Reply: not met

Query: Check if Post-emerge Herbicidal Activity SORHA (phytotoxicity rating) >= 60 (inclusive). Item: COc1c(Cl)cc(F)c(-n2c(=O)cc(C(F)(F)F)n(C)c2=O)c1NN=C(C)C [15-12]
Reply: met

Query: Quick check, Post-emerge Herbicidal Activity SORHA (phytotoxicity rating) >= 60? CCCOC(=O)C(Cl)Cc1c(OCC)c(Cl)cc(F)c1-n1c(=O)cc(C(F)(F)F)n(C)c1=O (stereo not drawn) [14-66]
Reply: met

###

Tested on: johnsongrass (Sorghum halepense, SORHA)
assayProcedure: Post-emerge test, greenhouse herbicide activity screening
Type: in vivo
conditionLabel: 63 g ai/ha; post-emerge; 14 days after application; rating scale 0-100
Entries and their Post-emerge Herbicidal Activity SORHA (phytotoxicity rating) values follow.
Number only, please.

Cn1c(C(F)(F)F)cc(=O)n(-c2c(Cl)cc(Cl)cc2OC(=O)c2ccc(F)cc2F)c1=O [16-4] = 0
COc1c(Cl)cc(F)c(-n2c(=O)cc(C(F)(F)F)n(C)c2=O)c1Sc1ccc2ccccc2c1 [17-4] = 0
COc1c(Cl)cc(F)c(-n2c(=O)cc(C(F)(F)F)n(C)c2=O)c1NN=C(C(F)(F)F)C(F)(F)F [15-21] = 40

Here's the next entry for you.
Query: Given the entry COc1cc(Cl)cc(Cl)c1-n1c(=O)cc(C(F)(F)F)n(C)c1=O [16-2] , report its measured Post-emerge Herbicidal Activity SORHA (phytotoxicity rating).
Reply: 0

###

Tested on: field corn (Zea mays L., var. Dekalb 535, CORN)
assayProcedure: Post-emerge test, crop safety
Assay type: in vivo
conditionLabel: post-emerge, 63 g ai/ha, 14 days after application, rating scale 0-100
Think of 10 as a floor: if CORN phytotoxicity rating (crop damage) stands on it or above, it is class 1; beneath it, class 0.

COc1c(C#N)cc(F)c(-n2c(=O)cc(C(F)(F)F)n(C)c2=O)c1NC(=O)c1ccc2ccccc2c1 [2-180] = class 0
COc1c(Cl)cc(F)c(-n2c(=O)cc(C(F)(F)F)n(C)c2=O)c1NC(=O)CCc1cc(C)ccc1C [2-132] = class 1
COc1c(Br)cc(F)c(-n2c(=O)cc(C(F)(F)F)n(C)c2=O)c1N(C(=O)C=Cc1ccccc1)C(=O)C=Cc1ccccc1 [2-178] = class 0
COc1c(Cl)cc(F)c(-n2c(=O)cc(C(F)(F)F)n(C)c2=O)c1NC(=O)c1ccc2c(C#N)cccc2c1 [2-163] = class 1

Moving on to the next molecule.
Query: Please tell me: is the molecule COc1c(Cl)cc(F)c(-n2c(=O)cc(C(F)(F)F)n(C)c2=O)c1NC(=O)c1ccc2c(Br)cccc2c1 [2-158] at or over 10 in terms of CORN phytotoxicity rating (crop damage)?
Reply: class 0

###

Recorded Pre-emerge Herbicidal Activity AMARE by entry
System: redroot pigweed (Amaranthus retroflexus, AMARE)
assayProcedure: Pre-emerge test, greenhouse herbicide activity screening
Assay type: in vivo
conditionLabel: 63 g ai/ha; phytotoxicity rating 0-100, 14 days after application
Answer with the value's number alone.

Worked cases, Pre-emerge Herbicidal Activity AMARE given:
COc1c(Cl)cc(F)c(-n2c(=O)cc(C(F)(F)F)n(C)c2=O)c1NC(=O)OCc1cc(C)cc(C)c1 = 100
Cc1c(Cl)cc(F)c(-n2c(=O)cc(C(F)(F)F)n(C)c2=O)c1NC(=O)OCc1ccccc1Cl = 100
COc1c(Cl)cc(F)c(-n2c(=O)cc(C(F)(F)F)n(C)c2=O)c1NC(=O)OCc1ccc(C(C)C)cc1 = 30
COc1c(Cl)cc(F)c(-n2c(=O)cc(C(F)(F)F)n(C)c2=O)c1NC(=O)OCc1ccccc1C(F)(F)F = 100

Now consider the entry below.
Query: Observed Pre-emerge Herbicidal Activity AMARE on redroot pigweed (Amaranthus retroflexus, AMARE) for `Cn1c(C(F)(F)F)cc(=O)n(-c2c(F)cc(Cl)c(OCC#N)c2NC(=O)OCc2ccccc2)c1=O` , please.
Reply: 100
